Catalogue of % Protection from CPE values
Biological target: human TMEM106B (human, UniProt Q9NUM4 2-274); note: test concentration or dose not given here
Test: cell-based or functional assay
Please state the figure in %; there is no need to write the unit.

Recorded results for 6 binders are shown here.
TM-79 (antibody, V domains shown) VH: EVQLQQSGPELVKPGASVKMSCKASGYTFTNYVMHWLKQKPGQGLEWIAHITPHNDGTKYNEKFKGKATLTSDRSSSTAYMELNSLTSEDSAIYYCARSGQFGRGDYFHYWGQGTTVTVSS VL: DIVLTQSPASLAVSLGQRATISCRASKSVSTSGSIYIHWYQQKPGQPPKLLIYLTSNLESGVPARFSGSGSGTDFTLNIHPVEEEDAATYYCQHSGELPWTFGGGARLEIK | 4.5
TM-63 (antibody, V domains shown) VH: QVQLQQPGAELVKFGASVKLSCKASGYTFTSFWMHWVKQRPGQGLEWIGNIDPSDSETHYSQKFKDKATLTVDRSSNTAYIQLSSLTSEDSAVYYCARSSNWDNFDYWGQGTTVTVSS VL: DIVMTQASPSVSVTPGESVSISCRSSQSLLHVNGNTYLYWFLQRPGRSPRLLIYRMSNLASGVPDRFSGSGSGTAFTLRISRVEAEDVGVYYCMQHLQYPFSFGSGTKLEMK | 89.3
TM-86 (antibody, V domains shown) VH: EVQLQQSGPVLVKPGASVKMSCKASGYTFTDYYIHWVKQSHGRSLEWIGVISPYNDNTNYNQKFKGKATLTVDKSSSTAYMELNSLTSEDSAVYYCVRTYYSNYFDYWGQGTTLTVSS VL: DIVMTQSPSSLSVSAGEKVTMSCKSSQSLLNSGNQKNYLAWHQQRPGQPPKLLIYGASTRESGVPDRFTGSGSGTEFTLTISSVQAEDLAVYYCQNDHSYPLTFGAGTKLELK | 90.5
TM-72 (antibody, V domains shown) VH: QVQLQQPGAELVKPGTSVKLSCKASGSTFTNYWMHWVMQRPGQGLEWIGNIDPSDSDTHYNQKFKDRAKLTVDKSSSTAYMQLSGLTSEDSAVYYCARSRGGYYDYGEAMDYWGQGTSVTVSS VL: DIVMTQAAPSVPVTPGESVSISCRSSKSLLHTNGNTYLFWFIQRPGQSPHLLIYRKSNLASGVPDRFSGSGSGTAFTLRISRVEAEDVGVYYCMQHLEYPFTFGSGTKLEIK | 92.7
TM-13 (antibody, V domains shown) VH: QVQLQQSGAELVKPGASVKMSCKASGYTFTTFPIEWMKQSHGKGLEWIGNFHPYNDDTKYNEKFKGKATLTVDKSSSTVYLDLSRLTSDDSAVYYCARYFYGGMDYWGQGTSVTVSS VL: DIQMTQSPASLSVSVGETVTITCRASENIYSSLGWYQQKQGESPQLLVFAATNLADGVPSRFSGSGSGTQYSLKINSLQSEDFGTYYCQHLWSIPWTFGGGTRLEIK | 81.8
TM-23 (antibody, V domains shown) VH: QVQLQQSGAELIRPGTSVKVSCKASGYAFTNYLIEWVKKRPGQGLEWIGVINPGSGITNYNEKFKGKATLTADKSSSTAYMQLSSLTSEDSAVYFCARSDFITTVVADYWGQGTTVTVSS VL: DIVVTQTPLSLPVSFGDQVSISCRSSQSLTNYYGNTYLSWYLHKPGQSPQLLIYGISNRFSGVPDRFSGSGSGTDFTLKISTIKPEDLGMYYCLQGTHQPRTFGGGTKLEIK | 3.7

% Protection from CPE for TM-84 (antibody, V domains shown) VH: QVQLQQSGAELVKPGASVKMSCKASGYTFTTFPIEWMKQNHGKSLEWIGNFHPYNDDTKYNEKFKGKATLTVEKSSSTVYLELSRLTSDDSAVYYCARYFYGGMDYWGQGTSVTVSS VL: DIQMTQSPASLSVSVGETVTITCRASENIYSSLGWYHQKQGKSPQLLVFAATNLADGVPSRFSGSGSGTQYSLKINSLQSEDFGTYYCQHLWSVPWTFGGGTKLEIK ?
53.1

% Protection from CPE for TM-65 (antibody, V domains shown, mouse hybridoma mAb) VH: QVQLQQPGAEFVKPGASVRLSCKTSGYTFTSSWMHWVKQRPGQGLEWIGEINPKNGGTNYNEKFKTKATLTVDKSSNTAYMQLSSLTSEDSAVYYCTIPTWFTYWGQGTLVTVSS VL: DIQMNQSPSSLSASLGDTITITCRASQNINIWLSWYQQKPGNVPKLLIYKASNLHTGVPSRFSGSGSGTGFTLTISSLQPEDIATYYCLQGQSYPYTFGGGTKLGIK ?
4

% Protection from CPE for TM-82 (antibody, V domains shown) VH: QVQLQQSGAELVRPGTSVRVSCKASGYAFTNYLIEWIKQRPGQGLEWIGVINPGSGITDYSEKFKGKARLTADKSSSTAYMQLSSLTSDDSAVYFCTRSPFITTVVADYWGQGTTVTVSS VL: DVVVTQTPLSLPVSFGDQVSISCRSSQSLANTYGNTYLSWYLHTPGQSPQLLIFGISNRFSGVPDRFSGSGSGTDFTLKISTIKPEDLGVYYCLQGTHPPRTFGGGTKLEMK ?
3.2

% Protection from CPE for TM-46 (antibody, V domains shown) VH: QVQLQQSGADLVKPGASVKISCKASGYAFSSFWMNWVKLRPGKGLEWIGQIYPGDGDTDYNGKFKDKATLTADTSSNTAYMQLSRLTSEDSAVYFCARGDGFSYFDYWGQGTILTVSS VL: QIVLTQSPVIMSASPGERVTMTCCASSRVNYMHWYQQKSGSYPKRWIYDTSKLASGVPGRFSGSGSGTSYSLTISSMEAEDAATYYCQQWSSNPPTFGGGTKLEIK ?
4.7

Sourced from patent US20240166738A1
